# target_of_assay: Adenosine receptor A1 (Rattus norvegicus, UniProt P25099)
# test: In vitro binding affinity to Adenosine A1 receptor of rat cerebral cortical membranes using 1 nM [3H]PIA
Let's look at some compounds and their measured Ki.
Write the answer as a number in µM, unit excluded.

// known answers, use as guide
Cc1nn(C)c2c(C)c3c(cc12)c(C)nn3C: 54
CCn1nc(C)c2cc3c(C)nn(CC)c3c(C)c21: 20
Cc1n[nH]c2c([N+](=O)[O-])c3[nH]nc(C)c3cc12: 1.9
Cc1n[nH]c2c(C)c3[nH]nc(C)c3cc12: 1.2
CCCn1nc(C)c2cc3c(C)nn(CCC)c3cc21: 10.5
Cc1n[nH]c2cc3[nH]nc(C)c3cc12: 8

As a next step, examine the compound that follows.
Exam item: Look up Ki: CCn1nc(C)c2cc3c(C)nn(CC)c3cc21
Marked response: 27

###

# target_of_assay: Adenosine A2 receptor (Homo sapiens, UniProt P29275+P29274)
# test: In vitro binding affinity to Adenosine A2 receptor of human platelets by inhibition of NECA-stimulated adenylate cyclase
# Type: functional
parameter_measured: Ki (µM)
Write the answer as a number in µM, unit excluded.

// known answers, use as guide
Cc1nn(C)c2c(C)c3c(cc12)c(C)nn3C: 170
Cc1n[nH]c2c(C)c3[nH]nc(C)c3cc12: 4.8
CCCn1nc(C)c2cc3c(C)nn(CCC)c3cc21: 32

Exam item: Look up Ki: Cc1n[nH]c2c([N+](=O)[O-])c3[nH]nc(C)c3cc12
Marked response: 14.4

Exam item: Look up Ki: Cc1n[nH]c2cc3[nH]nc(C)c3cc12
Marked response: 25.6

Exam item: Look up Ki: CCn1nc(C)c2cc3c(C)nn(CC)c3c(C)c21
Marked response: 53

Exam item: Look up Ki: CCn1nc(C)c2cc3c(C)nn(CC)c3cc21
Marked response: 56

Exam item: Look up Ki: Cc1nn(C)c2cc3c(cc12)c(C)nn3C
Marked response: 80

###

# Species: Cavia porcellus
# test: Reversal of spasmogen-induced contraction of guinea pig cylindrical tracheal segments induced by histamine (1 x 10e -5 M)
# Assay type: functional
# applied_conditions: Trachea, read-out: ED50 (the source's name)
Let's look at some compounds and their measured EC50.

Cc1n[nH]c2c(Br)c3[nH]nc(C)c3cc12: 3000 nM

Exam item: Look up EC50: Cc1n[nH]c2cc3[nH]nc(C)c3cc12
Marked response: 1400 nM

###

# Species: Cavia porcellus
# test: Reversal of spasmogen-induced contraction of guinea pig cylindrical tracheal segments induced by acetylcholine (1*10e-5 M)
# Type: functional
# applied_conditions: Trachea, read-out: ED50 (the source's name)
parameter_measured: pEC50
Note on units: pEC50 is unitless, being -log10 of a concentration expressed in mol/L.

Exam item: Look up pEC50: Cc1n[nH]c2cc3[nH]nc(C)c3cc12
Marked response: 5.40

###

# target_of_assay: Adenosine receptor A1 (Rattus norvegicus, UniProt P25099)
# Sequence (P25099 whole entry): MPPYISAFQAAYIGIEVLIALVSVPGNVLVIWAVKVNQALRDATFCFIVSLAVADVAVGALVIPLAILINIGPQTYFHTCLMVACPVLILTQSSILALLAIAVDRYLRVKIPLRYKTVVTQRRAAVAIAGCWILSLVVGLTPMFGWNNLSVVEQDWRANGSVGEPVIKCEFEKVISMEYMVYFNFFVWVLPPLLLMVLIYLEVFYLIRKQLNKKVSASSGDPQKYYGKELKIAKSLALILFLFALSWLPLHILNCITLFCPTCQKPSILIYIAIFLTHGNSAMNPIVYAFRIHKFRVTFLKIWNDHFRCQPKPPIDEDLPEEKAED
# test: Binding of 1 nM [3H]CHA to Adenosine A1 receptor of rat cerebral cortical membranes
# Format: cell membranes, Membrane
parameter_measured: Ki (µM)
Write the answer as a number in µM, unit excluded.

Exam item: Look up Ki: Cn1c(=O)[nH]c2[nH]cnc2c1=O [1-METHYLXANTHINE]
Marked response: 9
